Each recorded value in this set is attributed to patent US20200230100A1.

- System: Mec-1
- protocol-summary: Anti-cancer action: number of viable cells (ATPlite) after 96 hours of culture
- Format: cell-based
- measurement-parameters: Mec-1 human chronic lymphocytic leukemia cell line
measured-metric: IC50 (µM)
Numbers only here, please. The scale is µM.

Input: Could you tell me which IC50 is on file for O=C(O[C@@H]1Cc2c(O)cc(O)cc2O[C@@H]1c1cc(O)c(O)c(O)c1)c1cc(O)c(O)c(O)c1 [EGCG, epigallocatechin gallate] ?
Output: 8.3

###

- Tested on: ARH77
- protocol-summary: Anti-cancer action: number of viable cells (ATPlite) after 96 hours of culture
- Assay type: cell-based
- measurement-parameters: ARH77 human multiple myeloma cell line
measured-metric: IC50 (µM)
Numbers only here, please. The scale is µM.

Input: Could you tell me which IC50 is on file for O=C(O[C@@H]1Cc2c(O)cc(O)cc2O[C@@H]1c1cc(O)c(O)c(O)c1)c1cc(O)c(O)c(O)c1 [EGCG, epigallocatechin gallate] ?
Output: 4
